// data source = PubChem BioAssay

test: PSAC antagonists in infected red cells, primary screen, cell-based, P. falciparum Indochina, OD700, 1 h (AID 1154); conditions: P. falciparum Indochina infected RBC osmotic lysis, higher = more signal, called active from +8 up or from −8 down
z-score values by entry
parameter measured: z-score

- compound: "CC(CCN1CCCCc2nc(C)c(C)cc21)=NOC[C@@H](O)[C@H]1O[C@@H]2OC(C)(C)O[C@@H]2[C@H]1O"
  numeric readout: 0.422
- compound: "CC(=O)OC[C@H]1O[C@H](CC=NOCC[C@@H]2C=C[C@H](OC(C)=O)[C@@H](COC(C)=O)O2)C=C[C@@H]1OC(C)=O"
  numeric readout: 0.421
- compound: "C#CCCCON=C1C[C@@H](O)[C@@H](O)[C@@H]2[C@@H]3C(=O)N([C@@H](C)c4ccccc4)C(=O)[C@@H]3CC[C@@H]12"
  numeric readout: 0.433
- compound: "CCOC(=O)[C@H](CC(C)C)NC(=O)CCC1CC(OC(=O)NCCc2ccc(F)cc2)CC2(CCCC(COC(=O)NCCOC)O2)O1 (stereo partly specified)"
  numeric readout: 3.18
- compound: "CCOC(=O)CCN1C(=O)[C@H]2[C@H]3[C@H](O)[C@H](O)CC(=NNC(=O)OCc4ccc(OC)cc4)[C@H]3CC[C@H]2C1=O"
  numeric readout: 0.519
- compound: "COC(=O)C(C(=O)OC)C1CCCC(=O)C1 (stereo unspecified)"
  numeric readout: 0.69
- compound: "O=C1C[C@@H](O)[C@@H](O)[C@@H]2[C@@H]3C(=O)N(c4ccc(F)cc4F)C(=O)[C@@H]3CC[C@H]12"
  numeric readout: -0.0503
- compound: "COc1ccc(O[C@H]2C=C[C@@H](C#Cc3ccccc3)O[C@@H]2CO)cc1"
  numeric readout: 2.26
- compound: "COC(=O)CC=C[C@@H](C)[C@@H](C=NOC[C@@H](C)[C@H](OCc1ccccc1)C(C)C)OC"
  numeric readout: 2.17
- compound: "COC(=O)[C@H](C)NC(=O)CCC1CC(OC(=O)NCCc2ccc(F)cc2)CC2(CCCC(COC(=O)NCCOc3ccccc3)O2)O1 (stereo partly specified)"
  numeric readout: -1.23
- compound: "O=C(NN=C1C[C@@H](O)[C@@H](O)[C@@H]2[C@@H]3C(=O)N(c4ccc(F)cc4F)C(=O)[C@@H]3CC[C@H]12)OCc1ccccc1"
  numeric readout: 10.1
- compound: "COC(=O)[C@H](C)NC(=O)CCC1CC(OC(=O)NCCc2ccc(F)cc2)CC2(CCCC(COC(=O)NCCc3ccccc3OC)O2)O1 (stereo partly specified)"
  numeric readout: 6.98
- compound: "COc1ccc(OC[C@@H]2CC3[C@@H](c4ccc(Br)cc4)[C@H](C)CC[C@H]3C(=O)O2)cc1 (stereo partly specified)"
  numeric readout: 4.49
- compound: "COC(=O)[C@H](C)NC(=O)CCC1CC(OC(=O)NCc2cccc3ccccc23)CC2(CCCC(COC(=O)NCc3ccccc3)O2)O1 (stereo partly specified)"
  numeric readout: 0.385
- compound: "C[C@H]1CC[C@@H](C(=O)O)N[C@@H]1c1cccc(N2CCCC2=O)c1"
  numeric readout: 0.162
- compound: "CC(=O)OC[C@H]1O[C@H](C#CCCc2ccccc2)C=C[C@@H]1OC(C)=O"
  numeric readout: 1.43

* * *

composite z-score values by entry
biological target: Follistatin (Homo sapiens); assay: follistatin binders on small-molecule microarrays, primary screen, biochemical, small-molecule microarray, 635/667 nm fluorescence (AID 1132); conditions: FST binding, 635 nm fluorescence, higher = more signal

- molecule: "CCc1cc2c(nc1CC)CCN(CCC(C)=NOC(C)CN1CCCCc3nc(C)c(C)cc31)C2 (stereo not drawn)"
  composite z-score: 1.18
- molecule: "C[C@H]1C=CCC(=O)OC[C@H](C)C(=O)N2CCC[C@H]2C(=O)OC1"
  composite z-score: 1.43
- molecule: "COC(=O)[C@@H]1CC[C@H](C)[C@@H](c2ccc(Br)cc2)N1C[C@H](O)CN=[N+]=[N-]"
  composite z-score: -0.117
- molecule: "CCOC(=O)[C@H](Cc1ccccc1)NC(=O)CCC1CC(OC(=O)NCCc2ccc(F)cc2)CC2(CCCC(COC(=O)NCCC(C)C)O2)O1 (stereo partly drawn)"
  composite z-score: 0.967
- molecule: "CC(CCN1CCCc2nc(C)c(C)cc21)=NOC[C@@H](O)COCc1ccco1"
  composite z-score: 1.55
- molecule: "Cc1cc(C)c(-c2cc([C@H](C)ON=C[C@@H](C)[C@H](OCc3ccccc3)C(C)C)on2)c(C)c1"
  composite z-score: -0.158
- molecule: "COC(=O)[C@H](C)NC(=O)CCC1CC(OC(=O)NCc2cccc3ccccc23)CC2(CCCC(COC(=O)NCc3cccc(C(F)(F)F)c3)O2)O1 (stereo partly drawn)"
  composite z-score: 0.928
- molecule: "CC(C)(C)N1C(=O)[C@H]2[C@H]3[C@H](O)[C@H](O)CC(=NOC[C@@H](O)COCc4ccco4)[C@@H]3CC[C@H]2C1=O"
  composite z-score: -0.396

* * *

biological target: Calmodulin-1 (Homo sapiens) (UniProt P0DP23); test: CALM1 binders on microarrays, EGTA buffer, profiling panel, biochemical, small-molecule microarray, Cy5-labelled CALM1 (AID 1111); conditions: Cy5-CALM1 binding fluorescence, higher = more signal;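 further: labelled calmodulin applied in Tris saline Tween buffer holding calcium plus EGTA and DTT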
Classify by measured composite z-score: satisfied if it is equal to or exceeds -0.3, not satisfied if it is smaller.

- compound: "C=CC[C@@H]1C=CC(ON=C(C)C)[C@@H](CO)O1 (stereo partly drawn)"
  assigned class: "satisfied"
- compound: "CCN1C(=O)[C@H]2[C@H]3[C@H](O)[C@H](O)CC(=NNC(=O)OCc4ccccc4)[C@@H]3CC[C@H]2C1=O"
  assigned class: "satisfied"
- compound: "O=C(NN=C1C[C@@H](O)[C@@H](O)[C@@H]2[C@@H]3C(=O)N(c4ccc(F)cc4F)C(=O)[C@@H]3CC[C@H]12)OCc1ccccc1"
  assigned class: "satisfied"
- compound: "COC(=O)[C@H](C)NC(=O)CCC1CC(OC(=O)NCc2ccc3c(c2)OCO3)CC2(CCCC(COC(=O)NCCC(C)C)O2)O1 (stereo partly drawn)"
  assigned class: "satisfied"
- compound: "CC(=O)OC[C@H]1O[C@H](CC=NOC(C)CN2CCCc3nc(C)c(C)cc32)C=C[C@@H]1OC(C)=O (stereo partly drawn)"
  assigned class: "not satisfied"
- compound: "CCN1C(C)=C(C(=O)OC)[C@@H](c2ccccc2)N2C(=O)[C@](O)(C(=O)OC)CC(C(C)=O)=C12"
  assigned class: "satisfied"
- compound: "CC(C)CON=C1C[C@@H](O)[C@@H](O)[C@@H]2[C@@H]3C(=O)N(C(C)(C)C)C(=O)[C@@H]3CC[C@@H]12"
  assigned class: "not satisfied"
- compound: "Cc1cc(C)c(-c2cc([C@H](C)ON=C[C@@H](C)[C@H](OCc3ccccc3)C(C)C)on2)c(C)c1"
  assigned class: "satisfied"

* * *

assay: binders of probe aFST on microarray, primary screen, stem cell growth factor project, biochemical, small-molecule microarray, fluorescence 635/667 (AID 1086); conditions: higher = more signal;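 further: score merges 667 nm fluorescence with signal-to-noise of each printed compound spot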

- compound: "CCCCOC(OCCCC)C(O)CSc1ccc2ccccc2c1 (stereo not given)"
  composite z-score: 0.105
- compound: "COC(=O)C1=C(C)N(Cc2ccccc2)C2=C3C(=O)OCC[C@@H]3[C@@](O)(C(=O)OC)C(=O)N2[C@@H]1c1ccccc1"
  composite z-score: -0.0464
- compound: "O=C1[C@H]2[C@H]3[C@H](O)[C@H](O)CC(=NO[C@@H]4O[C@H](CO)[C@@H](O)[C@H](O)[C@H]4O)[C@@H]3CC[C@H]2C(=O)N1c1cccc(Oc2ccccc2)c1"
  composite z-score: 0.365
- compound: "CCN1C(=O)[C@H]2[C@H]3[C@H](O)[C@H](O)CC(=NO[C@@H]4O[C@H](COC(C)=O)[C@@H](OC(C)=O)[C@H](OC(C)=O)[C@H]4OC(C)=O)[C@@H]3CC[C@H]2C1=O"
  composite z-score: 0.054
- compound: "CC(=O)OC[C@H]1O[C@H](CC=NOC[C@@H](O)COCc2ccco2)C=C[C@@H]1OC(C)=O"
  composite z-score: 0.621
- compound: "C[C@@H](c1ccccc1)N1C(=O)[C@H]2[C@H]3[C@H](O)[C@H](O)CC(=NNC(=O)OCc4ccccc4)[C@@H]3CC[C@H]2C1=O"
  composite z-score: 0.0473
- compound: "CON(C)C(=O)c1nnc2c(n1)[nH]c1ccccc12"
  composite z-score: -0.128
- compound: "CCC1=NOC(CCC2CC(OC(=O)NCc3cccc4c3OCO4)CC3(CCCC(COC(=O)NCCc4ccc(Cl)cc4)O3)O2)C1 (stereo not given)"
  composite z-score: -0.0353
- compound: "CC(CCN1CCc2nc(-c3ccccc3)c(-c3ccccc3)cc2C1)=NOC(C)CN1CCCc2nc(C)c(C)cc21 (stereo not given)"
  composite z-score: 0.676
- compound: "CCN1C(=O)[C@H]2[C@H]3[C@H](O)[C@H](O)CC(=NOC(C)CN4CCCc5nc(C)c(C)cc54)[C@@H]3CC[C@H]2C1=O (stereo not given in full)"
  composite z-score: 0.372
- compound: "COc1cccc([C@H]2Oc3ccc(OC)cc3C(=NOCC[C@@H]3C=C[C@H](OC(C)=O)[C@@H](COC(C)=O)O3)[C@@H]2O)c1"
  composite z-score: 0.366
- compound: "C[C@@H]1C=CCC(=O)OC[C@H](C)C(=O)N[C@@H](Cc2ccccc2)C(=O)OC1"
  composite z-score: 0.0347
- compound: "CON=C(C)CCC(=O)OC[C@H]1O[C@H](C#Cc2ccccc2)C=C[C@@H]1Oc1ccc(C)cc1"
  composite z-score: 0.423
- compound: "CCOC(=O)[C@H](Cc1ccccc1)NC(=O)CCC1CC(OC(=O)NCCc2ccc(F)cc2)CC2(CCCC(COC(=O)NCc3cccc(C(F)(F)F)c3)O2)O1 (stereo not given in full)"
  composite z-score: 0.332
- compound: "C=CC[C@@H]1C=C[C@H](Oc2ccc(C)cc2)[C@@H](COC(=O)NCc2cccc3ccccc23)O1"
  composite z-score: -0.174
